The measured values listed here are drawn from patent US20240408169A1.

# key: entry, value: pIC50
target: CyclinA2/CDK2 (Homo sapiens, UniProt P20248); construct: purchased CRELUX Protein Services; experiment: Fluorescence Polarization (FP) competitive binding assay, Cyclin A2/Cdk2; settings: 8 nM Cyclin A2/Cdk2, 2 nM FAM probe; average of 2-3 independent experiments; read-out: Cyclin A FP IC50;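 further: plates equilibrated two hours at room temperature before polarization reading, IC50 fitted from eight-concentration compound titration curves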
*1 amine or outer side, *2 acyl side, *3 side chain or, on linkers, in order; H or OH if unused. Where a SMILES comes first, the peptide text is derived from it. Bridges are numbered along the chain shown (N, C = ends). [ ]: non-standard residue; d: D form. The star is where a group is joined. X42 = CN([C@@H](Cc1cc(Cl)ccc1-c1cnn(S(=O)(=O)C2CC2)c1)C(=O)[*:2])[*:1]; X177 = CN([C@@H](Cc1cc(F)ccc1C1=CC2CCC(C1)N2)C(=O)[*:2])[*:1]; NMehhhLys(Me) = CN([C@@H](CCCCCCCN(C)[*:3])C(=O)[*:2])[*:1]; Oxane2carbonyl(2R-CF3) = O=C([C@@]1(C(F)(F)F)CCCCO1)*; cBuCO(3,3-F2-1-CF3) = O=C(C1(C(F)(F)F)CC(F)(F)C1)*; Pro(trans-4-F) = O=C(O)[C@@H]1C[C@@H](F)CN1; Gly(cPr) = N[C@H](C(=O)O)C1CC1
Friendly reminder that pIC50 comes from taking -log10 of the concentration in mol/L.

Examples with their reported pIC50 follow.
Prompt line: Please report pIC50 for the following molecule: CC(C)C[C@@H]1NC(=O)[C@@H](N(C)C(=O)[C@@H](NC(=O)[C@@H]2C[C@@H](F)CN2C(=O)C2(C(F)(F)F)CC(F)(F)C2)C2CC2)CCCCCCCN(C)C(=O)[C@H](Cc2cc(F)ccc2C2=CC3CCC(C2)N3)N(C)C1=O (stereo partly drawn) [Example 165] ({cBuCO(3,3-F2-1-CF3)}-[Pro(trans-4-F)][Gly(cPr)][NMehhhLys(Me)]L[X177]; lactam 3-C)
Response line: 6.96

Prompt line: Look up and state reported pIC50 for CC(C)C[C@@H]1NC(=O)[C@@H](N(C)C(=O)[C@@H](NC(=O)[C@@H]2C[C@@H](F)CN2C(=O)[C@@]2(C(F)(F)F)CCCCO2)C2CC2)CCCCCCCN(C)C(=O)[C@H](Cc2cc(Cl)ccc2-c2cnn(S(=O)(=O)C3CC3)c2)N(C)C1=O [Example 283] ({Oxane2carbonyl(2R-CF3)}-[Pro(trans-4-F)][Gly(cPr)][NMehhhLys(Me)]L[X42]; lactam 3-C)
Response line: 7.52

// below: pIC50 requested for another molecule
Prompt line: State its pIC50 for this molecule: CC(C)C[C@@H]1NC(=O)[C@@H](N(C)C(=O)[C@@H](NC(=O)[C@@H]2C[C@@H](F)CN2C(=O)C2(C(F)(F)F)CCC2)C2CC2)CC=CCCCCNC(=O)[C@H](Cc2cc(Cl)ccc2-c2cnn(CCO)c2)N(C)C1=O
Response line: 7.70
